Provenance of the data: paper PMC6376154

- Tested on: F100TpM, a bovine lymphocyte cell line infected by T. parva
- measurement.description: 3H-thymidine incorporation growth assay on F100TpM cells (screen at 1 μM and IC50 titration)
- recorded.conditions: CC50 on Con A blasts divided by IC50 on F100TpM
Give measured TI (CC50/IC50), therapeutic index for each item. Keep answers brief.
One number for each entry.

# compound CCOc1cc(Cl)c(C(C)NC(=O)c2ccccc2)cc1OCC (stereo not drawn) ; its TI (CC50/IC50), therapeutic index = 1.08

# compound CNC(=O)c1nn(C)c2c1C(C)(C)Cc1cnc(Nc3ccc(N4CCN(C)CC4)cc3)nc1-2 ; its TI (CC50/IC50), therapeutic index = 0.86

# compound CCOC(=O)c1cnc2c(CC)cccc2c1O ; its TI (CC50/IC50), therapeutic index = 2.6

# compound CCCN(CCC)CC(O)COc1ccccc1C(=O)Nc1ccccc1 (stereo not drawn) ; its TI (CC50/IC50), therapeutic index = 1.07

# compound Clc1ccc2c(N3CCCC3)ccnc2c1 ; its TI (CC50/IC50), therapeutic index = 0.56

# compound COc1cc(-c2nc(-c3ccc(Sc4ccccc4)cc3)c(-c3ccccc3)[nH]2)cc(OC)c1O ; its TI (CC50/IC50), therapeutic index = 1.5

# compound CCCc1cc(O)c2c3c(c(=O)oc2c1)CN(C)CC3 ; its TI (CC50/IC50), therapeutic index = 1.83

# compound Oc1ccc(Br)cc1CN1CCN(Cc2cccc(F)c2)CC1 ; its TI (CC50/IC50), therapeutic index = 0.99

# compound COc1ccc2c(=O)cc(C(Cl)(Cl)Cl)oc2c1 ; its TI (CC50/IC50), therapeutic index = 1.67

# compound CC(=O)OCC1OC([S-])C(OC(C)=O)C(OC(C)=O)C1OC(C)=O.CCP(CC)CC.[Au+] (stereo not drawn) [MMV688978, Auranofin, reference compound] ; its TI (CC50/IC50), therapeutic index = 0.74

Next item in the queue.
# compound N=C(N)Nc1ccc(-c2ccc(-c3ccc(N=C(N)N)c(Cl)c3)o2)cc1Cl ; its TI (CC50/IC50), therapeutic index = 0.95

###

Give measured CC50 at 48 h for each item. Keep answers brief.
- measurement.description: in vitro
- recorded.conditions: bovine, CC50 (μM) Con A blasts

# compound Cc1nc(Nc2ncc(C(=O)Nc3c(C)cccc3Cl)s2)cc(N2CCN(CCO)CC2)n1 [Dasatinib, dasatinib, reference compound] ; its CC50 at 48 h = > 10 µM

Next item in the queue.
# compound COC(=O)Nc1nc2ccc(C(=O)c3ccccc3)cc2[nH]1 [MMV003152, Mebendazole, reference compound] ; its CC50 at 48 h = < 0.001 µM

###

- measurement.description: 3H-thymidine incorporation toxicity assay on ConA-stimulated uninfected bovine PBMC (CC50)
- recorded.conditions: bovine, uninfected bovine PBMC stimulated with ConA (Con A blasts), CC50 (μM) Con A blasts, uninfected bovine PBMC stimulated with ConA, 48 h compound, 3H-thymidine incorporation
property.label: CC50 at 48 h (µM)
Answers are plain numbers, in µM.

Solved entries:
# compound COc1ccc2c(=O)cc(C(Cl)(Cl)Cl)oc2c1 [MMV665820] ; its CC50 at 48 h = 0.25

# compound CCCc1cc(O)c2c3c(c(=O)oc2c1)CN(C)CC3 [MMV665841] ; its CC50 at 48 h = 0.66

# compound CCOc1cc(Cl)c(C(C)NC(=O)c2ccccc2)cc1OCC (stereo not drawn) [MMV665800] ; its CC50 at 48 h = 0.53

# compound CCOC(=O)c1cnc2c(CC)cccc2c1O [MMV498479] ; its CC50 at 48 h = 0.13

# compound COc1cc(-c2nc(-c3ccc(Sc4ccccc4)cc3)c(-c3ccccc3)[nH]2)cc(OC)c1O [MMV007273] ; its CC50 at 48 h = 0.06

# compound CCCN(CCC)CC(O)COc1ccccc1C(=O)Nc1ccccc1 (stereo not drawn) [MMV006455] ; its CC50 at 48 h = 0.9

Next item in the queue.
# compound Clc1ccc2c(N3CCCC3)ccnc2c1 [MMV007363] ; its CC50 at 48 h = 1.09

###

Give measured CC50 for each item. Keep answers brief.
- Test system: bovine PBMC stimulated with ConA (Con A blasts)

Need CC50 for each of these molecules.
1. COc1ccc(-c2cnc3ccc(N4CCCC4)nn23)cc1OC
2. N=C(N)Nc1ccc(-c2ccc(-c3ccc(N=C(N)N)c(Cl)c3)o2)cc1Cl

OUT:
["< 1 nM", "560 nM"]

For the molecule CO[C@@H](C(=O)N1Cc2[nH]nc(NC(=O)c3ccc(N4CCN(C)CC4)cc3)c2C1)c1ccccc1 , the measured CC50 on bovine PBMC stimulated with ConA (Con A blasts) was < 1 nM

###

- measurement.description: 3H-thymidine incorporation toxicity assay on ConA-stimulated uninfected bovine PBMC (CC50)
- recorded.conditions: bovine
property.label: CC50 at 48 h
Please provide the amount together with its unit, number first.

# compound Oc1ccc(Br)cc1CN1CCN(Cc2cccc(F)c2)CC1 [MMV000356] ; its CC50 at 48 h = 860 nM

###

- Test system: F100TpM, a bovine lymphocyte cell line infected by T. parva
- measurement.description: 3H-thymidine incorporation growth assay on F100TpM cells (screen at 1 μM and IC50 titration)
- recorded.conditions: read-out: IC50 (μM) F100TpM; T. parva infected lymphocyte cell line, 48 h compound, 3H-thymidine incorporation; listed as auranofin
property.label: IC50

For the molecule CC(=O)OCC1OC([S-])C(OC(C)=O)C(OC(C)=O)C1OC(C)=O.CCP(CC)CC.[Au+] (stereo not shown) [MMV688978, Auranofin, reference compound] , the measured IC50 on F100TpM, a bovine lymphocyte cell line infected by T. parva was < 1 µM

###

- Tested on: bovine PBMC stimulated with ConA (Con A blasts)
- measurement.description: 3H-thymidine incorporation toxicity assay on ConA-stimulated uninfected bovine PBMC (CC50)
- recorded.conditions: read-out: CC50 (μM) Con A blasts; uninfected bovine PBMC stimulated with ConA, 48 h compound, 3H-thymidine incorporation
Give measured CC50 for each item. Keep answers brief.
Give bare numbers, in µM.

Need CC50 for each of these molecules.
1. CC(=O)OCC1OC([S-])C(OC(C)=O)C(OC(C)=O)C1OC(C)=O.CCP(CC)CC.[Au+] (stereo not shown) [MMV688978, Auranofin, reference compound]
2. CNC(=O)c1nn(C)c2c1C(C)(C)Cc1cnc(Nc3ccc(N4CCN(C)CC4)cc3)nc1-2

OUT:
[0.4, 0.3]

###

Give measured TI (CC50/IC50), therapeutic index for each item. Keep answers brief.
- System: F100TpM, a bovine lymphocyte cell line infected by T. parva
- measurement.description: 3H-thymidine incorporation growth assay on F100TpM cells (screen at 1 μM and IC50 titration);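 further: growth inhibition compared against wells lacking compound, run in triplicate, and CC50 derived from 3H-thymidine uptake by PBMC stimulated with ConA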
- recorded.conditions: CC50 on Con A blasts divided by IC50 on F100TpM

# molecule Cc1nc(Nc2ncc(C(=O)Nc3c(C)cccc3Cl)s2)cc(N2CCN(CCO)CC2)n1 [Dasatinib, dasatinib, reference compound] ; its TI (CC50/IC50), therapeutic index = > 2000

# molecule Cc1nn(C)c(C)c1NS(=O)(=O)c1c(Cl)cc(-c2ccnc(N3CCNCC3)c2)cc1Cl [MMV688180] ; its TI (CC50/IC50), therapeutic index = <0.001

# molecule CC(C)(C)[C@H]1CC[C@H](CC2=C(O)C(=O)c3ccccc3C2=O)CC1 [Buparvaquone, reference compound] ; its TI (CC50/IC50), therapeutic index = >2380

# molecule CO[C@@H](C(=O)N1Cc2[nH]nc(NC(=O)c3ccc(N4CCN(C)CC4)cc3)c2C1)c1ccccc1 [MMV676600] ; its TI (CC50/IC50), therapeutic index = <0.001

# molecule COC(=O)Nc1nc2ccc(C(=O)c3ccccc3)cc2[nH]1 [MMV003152, Mebendazole, reference compound] ; its TI (CC50/IC50), therapeutic index = <0.001

# molecule COc1ccc(-c2cnc3ccc(N4CCCC4)nn23)cc1OC [MMV023985] ; its TI (CC50/IC50), therapeutic index = <0.001

New cases:
# molecule COc1ccc2nc(C)cc(Nc3cccc(O)c3)c2c1 [MMV008212] ; its TI (CC50/IC50), therapeutic index = >12
